Listing of recorded 100 nM Ag Bound (RU) by entry.
Biological target: T1, human NPR1 extracellular domain expressed with a C-terminal myc-myc-hexahistidine (hNPR1-MMH) (human, UniProt P16066 33-473)
T1 construct: also called hNPR.mmh; monomeric human NPR1
T1 sequence (P16066 other isoform, or with tags, fused parts or gaps): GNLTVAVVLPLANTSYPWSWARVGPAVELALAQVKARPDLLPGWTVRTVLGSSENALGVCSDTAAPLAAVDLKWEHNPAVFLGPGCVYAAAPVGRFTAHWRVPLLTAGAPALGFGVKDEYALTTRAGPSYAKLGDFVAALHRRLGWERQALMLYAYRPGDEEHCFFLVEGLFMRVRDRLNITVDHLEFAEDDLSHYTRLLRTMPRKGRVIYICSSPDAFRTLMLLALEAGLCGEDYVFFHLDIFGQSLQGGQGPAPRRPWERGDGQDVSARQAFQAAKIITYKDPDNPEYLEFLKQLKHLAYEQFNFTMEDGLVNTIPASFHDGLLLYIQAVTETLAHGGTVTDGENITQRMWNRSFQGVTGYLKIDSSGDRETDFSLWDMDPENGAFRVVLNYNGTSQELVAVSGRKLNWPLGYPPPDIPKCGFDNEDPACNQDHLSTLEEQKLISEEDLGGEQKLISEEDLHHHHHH
Experiment: SPR, mAb captured, 25 C
OBSERVABLE: 100 nM Ag Bound (RU)

mAb25508 (antibody, V domains shown) VH: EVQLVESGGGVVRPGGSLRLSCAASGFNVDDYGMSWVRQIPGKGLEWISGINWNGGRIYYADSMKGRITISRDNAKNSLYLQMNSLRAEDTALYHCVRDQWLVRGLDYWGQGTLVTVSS VL: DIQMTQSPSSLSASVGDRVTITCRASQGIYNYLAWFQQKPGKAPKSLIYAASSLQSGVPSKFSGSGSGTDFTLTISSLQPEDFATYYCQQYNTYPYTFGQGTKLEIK; 192
mAb22035 (antibody, V domains shown) VH: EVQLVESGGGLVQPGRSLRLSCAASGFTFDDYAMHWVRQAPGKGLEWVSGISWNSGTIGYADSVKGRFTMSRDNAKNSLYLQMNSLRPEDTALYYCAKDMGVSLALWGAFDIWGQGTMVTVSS VL: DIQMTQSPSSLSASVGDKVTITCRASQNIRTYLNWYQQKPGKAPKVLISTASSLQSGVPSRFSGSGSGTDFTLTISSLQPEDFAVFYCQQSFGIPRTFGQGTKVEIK; 210

Cited source: patent US20240309103A1
